System: Plasmodium berghei
test.details: Screen against P. berghei liver stage (PbLuc), transformed with Luciferase, at 10uM
Assay type: functional, HepG2
particulars: tested at 10 uM
Out of some 69,000 compounds screened, about 8,600 (12%) showed an effect of 50% or more. Only a selection was taken, and strong results are over-represented in it overall.
property.measured: INHIBITION

As a guide, the following entries are already answered.
[
  {
    "compound": "Cn1nc(Cn2cccn2)c2c1CN(C1CCOCC1)C2",
    "property.measured": "INHIBITION",
    "reported": "44.2%"
  },
  {
    "compound": "O=C1CCC(c2ccc(Cl)cc2)=NN1CN1CCSCC1",
    "property.measured": "INHIBITION",
    "reported": "6.34%"
  }
]

API: value(readout=INHIBITION, system=Plasmodium berghei) for record Cn1cc(I)c(C(=O)NCCCn2cc(Br)cn2)n1
26.8%

Please provide the recorded INHIBITION for CCN(CC1CCOC1)C(=O)NCc1nnc2n1CCC2 (centres undefined) , tested on Plasmodium berghei.
42%

What INHIBITION appears in the records for this compound with Plasmodium berghei? O=C(NCc1nnc2n1CCCCC2)N(Cc1ccncc1)C1CC1
26.5%

// map O=S(=O)(Cc1ccc(F)cc1)NCCc1nnc2n1CCC2 to recorded INHIBITION (system: Plasmodium berghei)
30.5%

Source of measurements: ChEMBL document CHEMBL4513216
